The measured values listed here are drawn from PubChem BioAssay AID540276.

Experiment: qHTS for inhibitors of binding or entry into cells for Marburg Virus
Conditions: Marburg virus pseudotyped entry inhibition, cell reporter; series mostly up to 37.8 µM
Among all 300,000 compounds or so, about 5,400 (1.8%) were called active. Inconclusive results (about 28%) are left out. Calls come from the whole dose curve; tested in HEK293 cells. For the sample, actives were picked, then their nearest neighbours and some compounds at random.
Labels: active, inactive

- COc1c(O)ccc2c1-c1c3c(cc4c1C(C2)N(C)CC4)OCO3 (stereo unspecified): inactive
- Cc1nc(-c2ccc(F)cc2)c(CC(=O)Nc2cc(S(=O)(=O)N3CCCCC3)ccc2C)s1: inactive
- O=C(NNc1ccccc1Cl)C(O)(c1cccc(C(F)(F)F)c1)c1cccc(C(F)(F)F)c1: active
- O=C(Nc1c(Br)cc2c(c1Br)Cc1cc([N+](=O)[O-])ccc1-2)C(Cl)Cl: inactive
- Cc1ccc(C)c(N2CCN(C(=O)CCc3nc(-c4cccc(C(F)(F)F)c4)no3)CC2)c1: inactive
- COc1ccc(OCC(=O)NNC(=O)C2CCC2)cc1: inactive
- CCOc1ccc(NC(=O)CN2CCN(CC(=O)Nc3ccc(OC)cc3)CC2)cc1: inactive
- COc1ccc(/C=C/c2noc(-c3ccccc3OC(C)=O)n2)cc1: active
- O=C(NCC(=O)N1CCN(c2ccccc2F)CC1)c1cccs1: inactive
- COc1ccc(N(CC(=O)N2CCOCC2)S(=O)(=O)c2ccccc2)cc1Cl: inactive
- Cc1oc2ccc(O)c(CN3CCCCC3)c2c1C(=O)Nc1cccc(C(F)(F)F)c1: active
- O=C(CCc1ccc(S(=O)(=O)N2CCOCC2)cc1)Nc1ccc2ccccc2c1: inactive
- Cc1nc2ccc(C(=O)N/N=C/c3ccc(O)cc3)cc2[nH]1: inactive
- O=C(Nc1cc(C(F)(F)F)ccc1Cl)C(=O)N1CCCCC1: inactive
- COc1ccc(OC)c(NC(=O)CN2CCN(C(=O)c3ccco3)CC2)c1: inactive
- O=C(Nc1ccc(S(=O)(=O)NCC2CCCO2)cc1)c1ccc(F)cc1 (stereo unspecified): inactive
- COc1ccc2c(c1)c(=Cc1ccc(N(C)C)cc1)c1cc(-c3ccccc3)[n+](C)n12: active
- CCN1CCN(Cc2c(O)ccc3oc(C)c(C(=O)Nc4ccc(C)cc4C)c23)CC1: inactive
- O=C(Nc1ccc(Cl)cn1)[C@H]1CCCN1S(=O)(=O)c1ccccc1: inactive
- CC(=O)Oc1ccccc1[C@@H]1OC(=O)c2ccccc2N1C(C)=O: inactive
- Cc1oc2ccc(O)c(CN3CCOCC3)c2c1C(=O)Nc1cccc(Cl)c1C: inactive
